testedOn: RIPK1 recombination protein (Homo sapiens (Human))
Sequence (Q13546 other isoform, or with tags, fused parts or gaps): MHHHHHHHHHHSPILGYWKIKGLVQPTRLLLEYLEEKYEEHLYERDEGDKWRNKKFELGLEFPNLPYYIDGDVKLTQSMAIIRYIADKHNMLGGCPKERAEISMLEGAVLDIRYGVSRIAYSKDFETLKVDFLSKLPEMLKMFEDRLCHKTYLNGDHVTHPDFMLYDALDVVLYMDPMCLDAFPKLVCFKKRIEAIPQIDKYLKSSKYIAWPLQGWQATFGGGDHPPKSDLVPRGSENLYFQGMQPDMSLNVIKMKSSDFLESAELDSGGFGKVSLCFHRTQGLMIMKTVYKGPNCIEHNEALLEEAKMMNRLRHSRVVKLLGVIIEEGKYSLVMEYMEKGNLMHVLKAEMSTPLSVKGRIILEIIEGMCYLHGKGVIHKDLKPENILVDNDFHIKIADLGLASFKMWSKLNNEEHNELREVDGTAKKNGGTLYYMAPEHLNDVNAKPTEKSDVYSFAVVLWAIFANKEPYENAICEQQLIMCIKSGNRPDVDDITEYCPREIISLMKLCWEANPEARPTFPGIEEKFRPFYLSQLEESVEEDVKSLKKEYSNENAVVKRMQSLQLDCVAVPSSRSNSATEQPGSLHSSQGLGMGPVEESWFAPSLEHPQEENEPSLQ
methodSummary: RIPK1 kinase activity assay (ADP-Glo)
conditionDetails: RIPK1 kinase activity, ADP-Glo, 10 μM ATP
Param label: returns TRUE when IC50 < 40 nM, returns FALSE otherwise, including exact equality.

[[record]]
molecule = "CC(C)n1cncc(-c2ccc(C3(NC(=O)c4ncc5cnn(C(C)C)c5n4)CC3)cc2Cl)c1=O [Compound 33]"
qualitativelabel = "FALSE"

[[record]]
molecule = "CC(C)n1cncc(-c2ccc(C3(NC(=O)c4ncc5cnn(CC6CC6)c5n4)CC3)cc2F)c1=O [Compound 73]"
qualitativelabel = "FALSE"

[[record]]
molecule = "CC(C)n1cncc(-c2ccc(C3(NC(=O)c4ncc5cnn(C(C)C)c5n4)CC3)cc2F)c1=O [Compound 35]"
qualitativelabel = "FALSE"

[[record]]
molecule = "CC(C)n1cncc(-c2ccc(C3(NC(=O)c4ncc5cnn(CC6CC6)c5n4)CC3)cc2)c1=O [Compound 61]"
qualitativelabel = "TRUE"

[[record]]
molecule = "CC(C)n1ncc2cnc(C(=O)NC3(c4ccc(-c5cncn(CC6CC6)c5=O)c(F)c4)CC3)nc21 [Compound 75]"
qualitativelabel = "FALSE"


Next up:
is_below(IC50, 40 nM) for CC(C)n1ncc2cnc(C(=O)NC3(c4ccc(-c5cncn(C6COC6)c5=O)cc4)CC3)nc21 [Compound 41] ?
FALSE
